MTT Assay (Viability) 4 h d-U937, percentage loss of cell viability for assorted molecules
System: Differentiated U937 cells
test-method-notes: Cell viability MTT assay
Assay type: cell-based, human
condition-set: 4 hr in 5% FCS; negative = apparent increase in viability
Dear colleague, please return just the value in %, with no unit written.

Below are worked cases with known answers.
> print(dat)
                                   molecule              target.system  result.number
1  COCC(=O)Nc1cc(Oc2ccc(NC(=O)Nc3cc(C(C)(C)C)nn3-c3ccc(C)cc3)c(Cl)c2)ccn1  Differentiated U937 cells            7.2
2  COc1ccc(-n2nc(C(C)(C)C)cc2NC(=O)Nc2ccc(OCc3ccnc(NC(=O)N4CCCC4)c3)c(Cl)c2Cl)cc1  Differentiated U937 cells          −19.1
3  COCC(=O)Nc1nccc(Oc2ccc(NC(=O)Nc3cc(C(C)(C)C)nn3-c3ccc(OC)cc3)c(Cl)c2Cl)n1  Differentiated U937 cells          −37.1
4  COc1ccc(-n2nc(C(C)(C)C)cc2NC(=O)Nc2ccc(Oc3ccnc(NC(=O)NCCCn4ccnc4)c3)c(Cl)c2Cl)cc1  Differentiated U937 cells            8.8

Need MTT Assay (Viability) 4 h d-U937, percentage loss of cell viability of `CNC(=O)Nc1cc(Oc2ccc(NC(=O)Nc3cc(C(C)(C)C)nn3-c3ccc(C)cc3)c(Cl)c2Cl)ccn1` , thanks.
−5.4

Need MTT Assay (Viability) 4 h d-U937, percentage loss of cell viability of `CNC(=O)Nc1cc(Oc2ccc(NC(=O)Nc3cc(C(C)(C)C)nn3-c3ccc(OC)cc3)c3cccnc23)ccn1` , thanks.
−12.4

Need MTT Assay (Viability) 4 h d-U937, percentage loss of cell viability of `COCC(=O)Nc1cc(Oc2ccc(NC(=O)Nc3cc(C(C)(C)C)nn3-c3ccc(C)cc3)c3[nH]ncc23)ccn1` , thanks.
−2.0

Need MTT Assay (Viability) 4 h d-U937, percentage loss of cell viability of `COc1ccc(-n2nc(C(C)(C)C)cc2NC(=O)Nc2ccc(Oc3ccnc(NC(=O)CN(C)C)c3)c(Cl)c2Cl)cc1` , thanks.
−18.7

Need MTT Assay (Viability) 4 h d-U937, percentage loss of cell viability of `CNCC(=O)Nc1cc(Oc2ccc(NC(=O)Nc3cc(C(C)(C)C)nn3-c3ccc(CO)cc3)c(Cl)c2Cl)ccn1` , thanks.
−7.0

Need MTT Assay (Viability) 4 h d-U937, percentage loss of cell viability of `COCC(=O)Nc1cc(COc2ccc(NC(=O)Nc3cc(C(C)(C)C)nn3-c3ccc(OC)cc3)c(Cl)c2Cl)ccn1` , thanks.
−12.2

Need MTT Assay (Viability) 4 h d-U937, percentage loss of cell viability of `COc1ccc(-n2nc(C(C)(C)C)cc2NC(=O)Nc2ccc(Oc3ccnc(NC(=O)N4CCCC4)c3)c(Cl)c2Cl)cc1` , thanks.
−25.5

Need MTT Assay (Viability) 4 h d-U937, percentage loss of cell viability of `CNC(=O)Nc1cc(Oc2ccc(NC(=O)Nc3cc(C(C)(C)C)nn3-c3ccc(OC)cc3)c(Cl)c2Cl)ncn1` , thanks.
−27.2

Need MTT Assay (Viability) 4 h d-U937, percentage loss of cell viability of `COc1ccc(-n2nc(C(C)(C)C)cc2NC(=O)Nc2ccc(Oc3ccnc(NC(=O)NC4CC4)c3)c(Cl)c2Cl)cc1` , thanks.
−4.7

Need MTT Assay (Viability) 4 h d-U937, percentage loss of cell viability of COc1ccc(-n2nc(C(C)(C)C)cc2NC(=O)Nc2ccc(Oc3ccnc(NC(=O)N4CCC(O)C4)c3)c(Cl)c2Cl)cc1 (centres unmarked) , thanks.
−25.1

The values you see were collected from patent US10000471B2.
